Recorded pIC50 for the following compounds
target: Recombinant SARS-CoV-2 3CL Protease (Severe acute respiratory syndrome coronavirus 2 (2019-nCoV) (SARS-CoV-2)); assay: biochemical; assay type: biochemical; details: 50% SARS-CoV-2 3CL protease inhibitory concentration; read-out: IC50
pIC50: −log10 of the molar value.

// known answers, use as guide
Cc1cncc(-n2c(=O)c(Cc3cc(F)c(F)c(F)c3)c(-c3ccc(C(F)(F)F)c(Cl)c3)n(CC#N)c2=O)c1 : > 8.00
N#CCn1c(N2CC3(C2)CC(F)(F)C3)c(-c2ccc(F)c(Cl)c2)c(=O)n(-c2cncc(C#N)c2)c1=O : > 8.00
N#CCn1c(N2Cc3ccccc3C2)c(Cc2cc(F)c(F)c(F)c2)c(=O)n(-c2cncc(=O)[nH]2)c1=O : 7.00 to 8.00
N#CCn1c(N2CC3(C2)CC(F)(F)C3)c(-c2ccc(F)c(C(F)F)c2)c(=O)n(-c2cncc(Cl)c2)c1=O : > 8.00
Cc1cncc(-n2c(=O)c(Cc3cc(F)c(F)c(F)c3)c(-c3ccc(C)c(C)c3)n(CC#N)c2=O)c1 : 8.33

Exam item: Supply measured pIC50 of "Cc1cncc(-n2c(=O)c(-c3ccc(F)c(Cl)c3)c(-c3cn[nH]c3)n(CC#N)c2=O)c1" in your reply.
Marked response: > 8.00

Exam item: Supply measured pIC50 of "Cc1cncc(-n2c(=O)c(-c3ccc(F)c(Cl)c3)c(Cl)n(CC#N)c2=O)c1" in your reply.
Marked response: > 8.00
